Numbers sourced from paper PMC2845718.

- Target of assay: Stingin-4
- Procedure summary: SPR competition
pKd: −log10 of the molar value.
Property name: pKd

* MDMX 24-108 (protein) INQVRPKLPLLKILHAAGAQGEMFTVKEVMHYLGQYIMVKQLYDQQEQHMVYCGGDLLGELLGRQSFSVKDPSPLYDMLRKNLVT | 6.60
